Where do the numbers come from? From the nanobody polyreactivity screen of Harvey et al. (2022).

- Procedure Summary: yeast display, Sf9 membrane polyspecificity reagent, FACS + sequencing; frameworks hold sequencing errors

[
  {
    "Sequence": "QVQLVESGGGLDQAGGSLRLSCAASGITFPYYAMGRYIQAPGKERELVADITSGGSTNYADSVKGRFTISRDNAKNTGYLQMNRLKPEDTAVYYCAADWYVIYDYWGQGTQVSVSS",
    "polyreactivity (PSR sort gate)": "low polyreactivity"
  },
  {
    "Sequence": "QVQLVESGGGLVQAVGSLRLSCAASGGTIDIYAMGWYRQAPAKERELVARISYSSGSTHYADSVKGRFTNSRDNAKNTVYLQMNSLKPEDTAVYYCAATAYWFYAKYYYWGQGTQVTVSS",
    "polyreactivity (PSR sort gate)": "high polyreactivity"
  },
  {
    "Sequence": "QVQLVESGGGLEQAGGSLRLTWAASGRIFYVYAMGLYIQAPGKERELVAAITWRGGTTYYADSVKGRFTISRDNAQNTVYLEMNSLKPEDTAVYYCNAKYFRSYYSIEYDYWGQGTQVTVSS",
    "polyreactivity (PSR sort gate)": "low polyreactivity"
  },
  {
    "Sequence": "QVQLVESGGGLVQAGGSLRLSCAASGTFYGYAMGGYRQSPGKERELVAAITWSGGSTYYADSVKGRFTISRDNAKNTVYLQMNSLKPEDTAVYYCAASLYSGYDSWGQGTQVTVSS",
    "polyreactivity (PSR sort gate)": "low polyreactivity"
  },
  {
    "Sequence": "QVQLVESGGGLVQAGGSLRLSCAASGRIFYYNPMGWYRQAPGKERELVAAITKSGGRTYYADSVKGRFTISRDNSKNTVYLQMYSLKPEDTAVYYCAALSRAGEYDYWGQGTQVTVSS",
    "polyreactivity (PSR sort gate)": "high polyreactivity"
  }
]

----------
- Procedure Summary: yeast display, Sf9 membrane polyspecificity reagent, FACS + sequencing; frameworks hold sequencing errors
Experimental Readout: polyreactivity (PSR sort gate)

[
  {
    "Sequence": "QVQLVESGGGLVQAGGSLRLSCAASGRIFLVYGMGWYREAPGKERELVASITYRGGSTYYADSVKGRFTISRDNAKNTVYLQMNSLKPEDTAVYYCADDGAFYASTEMDYWGQGTQVNVSS",
    "Measurement": "low polyreactivity"
  },
  {
    "Sequence": "QVQLVESGGGLVQAGGSLRLSCAASGSIFGNYVMGWYRQAPGKERELVAAIRWTGGSTYYADSVKGRFTISRDNAKNTVYLQMNSLKAEDTAVYYSIADSSDDYDYWGQGTQVTVSS",
    "Measurement": "low polyreactivity"
  },
  {
    "Sequence": "QVQLVESGGGLVQAGGSLRLSCAASGSTFRFNAMGWYRQAPGKEREFVAAIRFTGGSTYYADSVKGRFTISRDNAKNTVYLQMNSLKPEDSAVYYCNNADEYSTVEYDYWGQGTQVTVSS",
    "Measurement": "low polyreactivity"
  },
  {
    "Sequence": "QVQLEESGGGLVQAGGSLRLSCAASGRIFWVNVMGWYRQAPGKERELVAAITRGASTYADSVKGRFTISRDNAKNTVYLQLNSLKPEDTAVYYCAVGISDFQYYDYVYWGQGTHVTVSS",
    "Measurement": "high polyreactivity"
  },
  {
    "Sequence": "QVQLVESGGGLVQAGGSLRLSCAASGSIFFYYTMGWYRQAPGKEREMVAAISVGGSTYYADSVKGRFTISSDNAKNTVYLQMKSLKPEDTAVYYCNAVPAKGYVTVVRYYYWGLGTQVTVSS",
    "Measurement": "low polyreactivity"
  },
  {
    "Sequence": "QVQLVESGGGLVQAGGSLRLSCAAYGSIFSFYVMGWNRQAPGKERELVARINWSSTSTYYADSVKGRFTISRDNAKNTVYLQMNSLKPEDTAVYYCAAGRRVYPGYYYWGQGTQVTVSS",
    "Measurement": "high polyreactivity"
  },
  {
    "Sequence": "QGQLVESGGALVQAGGSLRISCAASGRTISQNSMGLYRPAPGKERELVAAIRRGGSTNYADSVKGRFTISRDNAKNTVFLQMNSLKQEDSAFYYCAGDLRRNGWGFDYWGQGTQVTVSS",
    "Measurement": "high polyreactivity"
  },
  {
    "Sequence": "QVQLVESGGGLVHAGGSLRLSCAASGSIFAYYAMGWYRQAPGKERELVARITYSTDGTYYADSVKGRFTISRDNAKNTVYLQMNSLKPEDTAVYFCAVDTWWGFKRYKFDYWGQGTQVTVSS",
    "Measurement": "low polyreactivity"
  },
  {
    "Sequence": "QVQLVESGGGLVQAGGSLRLSCAASGYIFNSNTMGWYRPAPGKERELVAAITSSGGRTNYADSVKGRFTISRDNAKNTVYLQMNSLKPEDTAVYYCATRVYYRAGRYKYDYWGQGTQVTVSS",
    "Measurement": "high polyreactivity"
  },
  {
    "Sequence": "QVQLVESGGGLVQAGGSLRLSSAASGNIFYTNTMGWYRQAPGKERELVAAITSGGTTYYADSVKGRFTISRDNAKNTVYLQMNSLKPEDTAVYYCAVRSSKWSWIYYYWGQGTQVTVSS",
    "Measurement": "high polyreactivity"
  },
  {
    "Sequence": "QVQLVESGGGLVQAGGSLRLSCAASGIIFYYYAMGWYRQAPGKERELVAAISWSGGSTYYADSVKGRFTISRDNAKNTVYLQMNSLKPDDTAVYYCAAAFSPGWWSRHTYDYDYWGQGTQVTVSS",
    "Measurement": "high polyreactivity"
  }
]

----------
- Procedure Summary: yeast display, Sf9 membrane polyspecificity reagent, FACS + sequencing; frameworks hold sequencing errors

[
  {
    "Sequence": "QVQLVEAGGRLVQAGGSLRLSCAASGITFTYYAMGGYRQPPGKDMELVAAISWSGGSTDYADSVKGRFTISRDNAKNTVYLQMNSLKPEDTAFYYCAATFSRFAYYYWGQGTPVTVSS",
    "polyreactivity (PSR sort gate)": "high polyreactivity"
  },
  {
    "Sequence": "QLQLVESGGGLVQAGGSLRLSCAASGSIFHRYAMGWYRQAPGKEREFVAAISGRGGSTYYADSVKGRITISRDNAKNTVYLQMNSLKPEDTAVYYCAADSSLFYGRPRYYYWGQGTQVTVSS",
    "polyreactivity (PSR sort gate)": "high polyreactivity"
  },
  {
    "Sequence": "QVQLVESGGGLVQAGGSLRLSCAASGRIFVYNAMGWYRQAPGKERELVASISWSGDSTYADSVKGRFTISRDNAKNTVYLQMNSLKPEDTAVYYCAADNGSKEFDYWGQGTQVTVSS",
    "polyreactivity (PSR sort gate)": "low polyreactivity"
  },
  {
    "Sequence": "QVQLVESGGGLVQAGGSLRLSCAASGSIFASNAMGWYRQAPGKERELVAAITDSGSTNYADSVKGRFTISRDNAKNTVYLQMNSLKREDTAVYYCDWSYYVWRRYRVARYDSWGQGTQVTVSS",
    "polyreactivity (PSR sort gate)": "low polyreactivity"
  },
  {
    "Sequence": "QVQLVESGGGLVQAGGSLRLSCAASGSIFWPYAMGWYRQAPGKDRELVATITWTGGSTYYADSVKGRFTISRDNAKNTVYLQMNSLKPEDTAVYYCAAAGYYGYGYDYWGQGTQVTVSS",
    "polyreactivity (PSR sort gate)": "low polyreactivity"
  }
]

----------
- Procedure Summary: yeast display, Sf9 membrane polyspecificity reagent, FACS + sequencing; frameworks hold sequencing errors

[
  {
    "Sequence": "QVQLVESGGGLVQAGGSLRLSCAASGRTFGVYVKGWYRQAPGKERELVAAIDDSGGSTYYADSVKGRFTISRDNAKNTVYLQMNSLKPEDTAVYYCAKTKTQYLTSEIRFDYWGQGTQVTVSS",
    "polyreactivity (PSR sort gate)": "low polyreactivity"
  },
  {
    "Sequence": "QVQLVESGGGLVQEGGSLRLSCAASGRIFDENAMGWYRQAPGKERELVAAISSGDSTKYADSVKGRFTISRDNAKNTVYLQMNSLKPEDTAVYYCAAARNHGLVGSESVGRNDYWGQGTQVTVSS",
    "polyreactivity (PSR sort gate)": "low polyreactivity"
  }
]

----------
- Procedure Summary: yeast display, Sf9 membrane polyspecificity reagent, FACS + sequencing; frameworks hold sequencing errors
Experimental Readout: polyreactivity (PSR sort gate)

[
  {
    "Sequence": "EVQLVESGGGLVQAGGSLRLSCAASGFFYPNNAMGWYRQAPGKERELVARISYGGGDTHYADSVKGRFTISRDNAKNTVYLQMNSLKPEDTAVYYCAVKDGQDDYWGQGTQVTVSS",
    "Measurement": "low polyreactivity"
  },
  {
    "Sequence": "QVQLVESGGGIVQAGGSLSLSCAASGYNFTQNAMGGYRQAPGKERELVASITSGGSTDYADSVKGRFTISRDNAKNTVYLQMNSLKPEDTAVYYCAAEFHFWGYLYDYWGQGTQVTVSS",
    "Measurement": "low polyreactivity"
  }
]
